In this section we review reported TGI values for a set of compounds.
Test system: SK-MEL-28 melanoma
Assay: NCI tumour cell line growth inhibition, 48 h

Consider the reported TGI for these compounds:
C[C@@H]1C=C(CCCCCCCCCCC[C@H](O)[C@@H]2CCC(=O)O2)C(=O)O1 ... > 100 µM
CCC1(O)CC(O)c2c(O)c3c(c(O)c2C1C(=O)OC)C(=O)c1cccc(O)c1C3=O (stereo unspecified) ... 75.4 µM
CC(O)/C=C/C(CCC(C)CO)C(C)C (stereo unspecified) ... > 100 µM
O=c1n(C2CCCCC2)c(=C(Cl)Cl)c(=C(Cl)Cl)n1C1CCCCC1 ... > 100 µM
C#Cc1cccc(Nc2ncnc3cc(OCCOC)c(OCCOC)cc23)c1 ... > 100 µM

Qu. Which value of TGI has been reported for CCN1C2=NC(=O)N(C)C(=O)C2(Cl)C(C(SC)S(=O)(=O)c2ccc(C)cc2)c2ccccc21 (stereo unspecified) in the records?
Ans. 67.9 µM

Qu. Which value of TGI has been reported for CCCCCCCCCCC/C(=N/O)c1ccc(O)c2ncccc12 in the records?
Ans. > 100 µM

Qu. Which value of TGI has been reported for CCCC1c2c(ccc3ccccc23)Oc2ccc3ccccc3c21 in the records?
Ans. > 100 µM
